- method_description: Cytotoxicity against human A549-ACE2 cells expressing ACE2 assessed as reduction in cell viability by CytoTox-Glo assay
- Format: toxicity, cell-based

>  <compound>
COc1ccc2nc3cc(Cl)ccc3c(Nc3cc(CN4CCCC4)c(O)c(CN4CCCC4)c3)c2n1 [PYRONARIDINE]

>  <IC50>
> 10 µM

$$$$
